test system: PPARg:RXRa (NR concentration 180 nM, RXRa partner concentration 90 nM); experiment: PBM binding z-score (relative to random genomic background probes); higher = stronger binding; sequences stand for … in GC…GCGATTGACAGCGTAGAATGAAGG
measure name: PBM binding z-score
Reply with the value as a number alone.

Reference set (5 entries):
[
  {
    "seq text": "CCGACTGGGGCAGAAAGGTTACCATACCATCCGG",
    "measure name": "PBM binding z-score",
    "value reported": 1.69
  },
  {
    "seq text": "TAGCCTAGGTCATTGGGCCAGAATAGTACGCATC",
    "measure name": "PBM binding z-score",
    "value reported": 3.79
  },
  {
    "seq text": "AGTCAAAGTTCAGGACGAGGTAACTTAAAGCACG",
    "measure name": "PBM binding z-score",
    "value reported": 4.72
  },
  {
    "seq text": "TGATATAGGTAATACAGGTGAAAGTCGGCATCTA",
    "measure name": "PBM binding z-score",
    "value reported": 2.39
  },
  {
    "seq text": "CTCGAAAGGTTGGTTGAGGTGAGTATACGGATAA",
    "measure name": "PBM binding z-score",
    "value reported": -0.0296
  }
]

Note: attention shifts to another entry.
PBM binding z-score on PPARg:RXRa (NR concentration 180 nM, RXRa partner concentration 90 nM) for `CCGAATGGGGCAAAGGTTACCATACTCAGTACGA` is 9.1

* * *

Catalogue of sequences with associated PBM binding z-score
system: PPARg:RXRa 270nM:90nM, anti-RXR (NR concentration 270 nM, RXRa partner concentration 90 nM); experiment: PBM binding z-score (relative to random genomic background probes); higher = stronger binding; sequences stand for … in GC…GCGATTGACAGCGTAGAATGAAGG
Reply with the value as a number alone.

Reference set (6 entries):
[
  {
    "seq text": "TGAATGAGGTTCTAAGATCAGGGAACGTTGCAAA",
    "PBM binding z-score": -0.03
  },
  {
    "seq text": "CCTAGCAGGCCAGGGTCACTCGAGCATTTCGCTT",
    "PBM binding z-score": 1.6
  },
  {
    "seq text": "CGTCCAAGGTCAACGGTCAGTGAAGAGATGACGG",
    "PBM binding z-score": 5.78
  },
  {
    "seq text": "ATCTCTAGGTAACCTAGTTCAGTGAATGCCGAAC",
    "PBM binding z-score": 1.42
  },
  {
    "seq text": "TCATATAGGTACTACAGGTGAAAGTCGGCATCTA",
    "PBM binding z-score": 2.18
  },
  {
    "seq text": "ATAGCAAGGTGATCGTGAGGTCGTTGATACTAAC",
    "PBM binding z-score": 0.22
  }
]

Summary for this sequence, `CAAACTAGGTCAGCGGAAGGTCAAAGTCCGCATG` : PBM binding z-score is 6.54

Summary for this sequence, `ACTATTAGTTGACTTAGCGCAACCGATACGACGC` : PBM binding z-score is 0.137

Summary for this sequence, `TAGCCTAGGTCAGTTCGGGCCAGTATACGCTATA` : PBM binding z-score is 0.647
